Measured values drawn from BindingDB's records for doi:10.1021/acs.jmedchem.9b01065 for this set.

Biological target: DNA topoisomerase 2-alpha (Homo sapiens, UniProt P11388)
Sequence (P11388 whole entry): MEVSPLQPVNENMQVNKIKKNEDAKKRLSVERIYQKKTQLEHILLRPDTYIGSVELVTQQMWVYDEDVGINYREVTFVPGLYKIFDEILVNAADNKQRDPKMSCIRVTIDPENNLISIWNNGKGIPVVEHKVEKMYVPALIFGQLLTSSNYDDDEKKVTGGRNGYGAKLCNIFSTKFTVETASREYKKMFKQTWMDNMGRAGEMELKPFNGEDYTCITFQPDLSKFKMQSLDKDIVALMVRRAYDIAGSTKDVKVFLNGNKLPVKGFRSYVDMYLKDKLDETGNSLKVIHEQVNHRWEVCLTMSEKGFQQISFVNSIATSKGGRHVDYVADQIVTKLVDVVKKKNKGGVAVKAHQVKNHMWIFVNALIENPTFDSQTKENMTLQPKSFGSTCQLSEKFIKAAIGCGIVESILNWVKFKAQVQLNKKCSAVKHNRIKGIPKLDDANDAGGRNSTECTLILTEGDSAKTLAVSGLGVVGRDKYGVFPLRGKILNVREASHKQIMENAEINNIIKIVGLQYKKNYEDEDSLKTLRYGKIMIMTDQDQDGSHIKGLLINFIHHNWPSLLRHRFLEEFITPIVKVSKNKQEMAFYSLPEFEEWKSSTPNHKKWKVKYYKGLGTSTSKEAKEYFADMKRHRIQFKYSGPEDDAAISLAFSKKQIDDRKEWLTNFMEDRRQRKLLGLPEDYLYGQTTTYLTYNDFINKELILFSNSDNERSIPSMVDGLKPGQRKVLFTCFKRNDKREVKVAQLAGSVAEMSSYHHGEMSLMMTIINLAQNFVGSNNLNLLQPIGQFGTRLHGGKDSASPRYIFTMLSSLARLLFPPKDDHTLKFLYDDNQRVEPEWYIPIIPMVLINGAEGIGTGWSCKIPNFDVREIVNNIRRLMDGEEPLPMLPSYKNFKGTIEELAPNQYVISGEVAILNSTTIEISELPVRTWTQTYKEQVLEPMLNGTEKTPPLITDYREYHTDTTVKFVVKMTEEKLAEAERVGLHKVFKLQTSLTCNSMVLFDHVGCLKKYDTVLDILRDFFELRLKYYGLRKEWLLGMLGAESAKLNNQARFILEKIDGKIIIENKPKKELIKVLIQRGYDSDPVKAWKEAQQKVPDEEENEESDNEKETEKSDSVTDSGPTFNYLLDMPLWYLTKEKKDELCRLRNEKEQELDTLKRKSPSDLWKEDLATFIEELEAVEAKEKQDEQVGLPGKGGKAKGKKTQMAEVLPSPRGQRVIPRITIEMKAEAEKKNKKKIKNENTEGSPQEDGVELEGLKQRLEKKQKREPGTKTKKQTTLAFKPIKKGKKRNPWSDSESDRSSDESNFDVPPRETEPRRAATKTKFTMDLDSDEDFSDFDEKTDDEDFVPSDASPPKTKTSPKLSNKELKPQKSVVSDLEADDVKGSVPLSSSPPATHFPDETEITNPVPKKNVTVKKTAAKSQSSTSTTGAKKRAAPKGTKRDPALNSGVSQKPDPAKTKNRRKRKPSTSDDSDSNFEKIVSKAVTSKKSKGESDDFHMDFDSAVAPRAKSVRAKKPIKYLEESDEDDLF
Assay: Inhibition of topoisomerase 2alpha in human SW620 organoids transfected with EcadPro-RFP reporter assessed as reversion of epithelial-mesenchymal transition by measuring increase in E-cadherin expression after 72 hrs by Hoechst 33342 staining based mCherryRFP reporter gene assay
Mark YES only for EC50 values smaller than 3 µM; exact matches and larger values are NO.

Please review the following examples before continuing.
CC(=O)Nc1ccc2c(-c3ccoc3)ccnc2c1O
NO
COc1cc(NC(C)=O)c(O)c2nccc(-c3ccccc3NC(=O)c3ccccc3)c12
NO
CC(=O)Nc1ccc2c(-c3cccs3)ccnc2c1O
YES

Query: # TODO verify EC50 < 3 µM strictly for this compound: CC(C)(C)C(=O)Nc1ccc2c(-c3ccccc3)ccnc2c1O
Result: NO

Query: # TODO verify EC50 < 3 µM strictly for this compound: CC(=O)Nc1ccc(-c2ccnc3c(O)c(NC(C)=O)ccc23)cc1
Result: NO

Query: # TODO verify EC50 < 3 µM strictly for this compound: O=C(CN1CCOCC1)Nc1ccc2c(-c3cc4ccccc4o3)ccnc2c1O
Result: NO

Query: # TODO verify EC50 < 3 µM strictly for this compound: O=C(CCN1CCOCC1)Nc1ccc2c(-c3cc(F)ccc3O)ccnc2c1O
Result: YES

Query: # TODO verify EC50 < 3 µM strictly for this compound: CC(=O)Nc1ccc2c(-c3cc(F)ccc3O)ccnc2c1O
Result: YES

Query: # TODO verify EC50 < 3 µM strictly for this compound: CC(=O)Nc1ccc2c(-c3cc4ccccc4o3)ccnc2c1O
Result: NO
